Catalogue of solubility at 72 h values
- Experimental details: Solubility of hydroxycinnamic acids in pure solvents (orbital shaker 72 h, HPLC)
- Format: physicochemical
- Protocol conditions: pure solvent EG, 25 °C, organic solvent or mixture, thermodynamic from solid, solvent EG; Tables S-1 to S-3; read-out: Solubility
Quick reminder: number only, in mg/mL, skip the unit.

Molecule: O=C(O)/C=C/c1ccc(O)cc1 [Coumaric acid, coumaric acid]
solubility at 72 h, mg/mL: 103

Pending molecule:
Request: Fill in the blank: the reported solubility at 72 h of O=C(O)/C=C/c1ccc(O)c(O)c1 [Caffeic acid] is ____.
Result: 42

###

List of solubility at 72 h values.
- Experimental details: Solubility of hydroxycinnamic acids in pure solvents (orbital shaker 72 h, HPLC)
- Format: physicochemical
- Protocol conditions: pure solvent 111 triether, 25 °C, organic solvent or mixture, thermodynamic from solid, solvent 111 triether, 298 K; read-out: Solubility
Provide only the numeric value, understood in mg/mL.

Molecule: O=C(O)/C=C/c1ccc(O)cc1 [Coumaric acid, coumaric acid]
Units symbol: mg/mL
solubility at 72 h: 109

Moving on to another molecule below.
Request: Fill in the blank: the reported solubility at 72 h of O=C(O)/C=C/c1ccc(O)c(O)c1 [Caffeic acid] is ____.
Result: 32.5

###

Listing of recorded solubility at 72 h by entry.
- Experimental details: Solubility of hydroxycinnamic acids in pure solvents (orbital shaker 72 h, HPLC)
- Assay type: physicochemical
- Protocol conditions: pure solvent 3i03i, 25 °C, organic solvent or mixture, thermodynamic from solid, solvent 3i03i, 298 K; read-out: Solubility
Numbers only here, please. The scale is mg/mL.

Compound: O=C(O)/C=C/c1ccc(O)c(O)c1 [Caffeic acid]
solubility at 72 h (mg/mL): 25.2

Request: For the compound shown here, O=C(O)/C=C/c1ccc(O)cc1 [Coumaric acid, coumaric acid] , give the reported solubility at 72 h.
Result: 85.7

###

- Experimental details: Solubility of hydroxycinnamic acids in pure solvents (orbital shaker 72 h, HPLC)
- Format: physicochemical
- Protocol conditions: pure 1,3-propylene glycol (PG), 25 °C, organic solvent or mixture, thermodynamic from solid, solvent PG (1,3-propylene glycol), 298 K; read-out: Solubility
Reported solubility at 72 h values are given for each entry in this list.
Numeric only. Scale: mg/mL

Cpd smiles: O=C(O)/C=C/c1ccc(O)c(O)c1
Units symbol: mg/mL
solubility at 72 h: 36.5

Proceeding to the next molecule to report its solubility at 72 h.
Request: Looking for the measured solubility at 72 h of "O=C(O)/C=C/c1ccc(O)cc1" , can you help?
Result: 91.3

###

# reported solubility at 72 h; entries follow
- Experimental details: physchem
- Protocol conditions: 25 °C, thermodynamic from solid, Solubility (mg/mL)
Give just the numeric value; mg/mL need not be written.

Cpd smiles: O=C(O)/C=C/c1ccc(O)cc1
Test value: 203

Now examine the next entry.
Request: Could you tell me which solubility at 72 h is on file for "O=C(O)/C=C/c1ccc(O)c(O)c1" ?
Result: 85

###

- Experimental details: Solubility of hydroxycinnamic acids in pure solvents (orbital shaker 72 h, HPLC)
- Format: physicochemical
- Protocol conditions: pure ethylene glycol dimethyl ether (EGDME), 25 °C, organic solvent or mixture, thermodynamic from solid, solvent EGDME (ethylene glycol dimethyl ether), 298 K; read-out: Solubility
- Protocol: Amber vials were used to protect the samples from light. To ensure reliability, all of the experiments were performed in triplicate. The samples were shaken in a biological orbital shaker at 100 rpm for 72 h at 25 °C. Before the samples were measured, they must be sonicated to avoid the formation of dimers and ensure the uniformity of the peaks. The column used for the quantification was a C18 Phenomenex Luna ([…] × 5 μm). […]
Measurement name: solubility at 72 h (mg/mL)
Give just the number in mg/mL; leave the unit off.

Request: Consider the molecule shown here: O=C(O)/C=C/c1ccc(O)c(O)c1 [Caffeic acid] What is its recorded solubility at 72 h?
Result: 32.5
